Assay: Growth inhibition of human BT/LapR1.0 cells at 10 uM after 72 hrs by cell titer-glo based luminescence assay
Conditions: read-out: GI
Label 1 for high-side inhibition at 72 h, 10 µM (at or above 10%) and 0 for low-side inhibition at 72 h, 10 µM (below it).

- Cc1ccccc1NC(=S)NC(CC(C)C)NC(=O)/C=C/c1ccccc1 (stereo not given): 1
- COc1cc(/C=C/C(=O)NC(NC(=O)Nc2ccccc2)C(C)C)cc(OC)c1OC (stereo not given): 1
- O=C(/C=C/c1ccccc1)NC(NC(=S)Nc1ccccc1)C1CC1 (stereo not given): 0
- CC(C)C(NC(=O)/C=C/c1ccccc1)NC(=S)Nc1ccccc1 (stereo not given): 1
- COc1cc(/C=C/C(=O)NC(NC(=S)Nc2ccccc2C)C2CC2)cc(OC)c1OC (stereo not given): 0
- COc1cc(/C=C/C(=O)NC(CC(C)C)NC(=S)Nc2cccnc2)cc(OC)c1OC (stereo not given): 1
- COc1cc(/C=C/C(=O)NC(NC(=S)Nc2ccccn2)C2CC2)cc(OC)c1OC (stereo not given): 1
- Cc1ccccc1NC(=S)NC(NC(=O)/C=C/c1ccccc1)C(C)(C)C (stereo not given): 0
- COc1cc(/C=C/C(=O)NC(CC(C)(C)C)NC(=S)Nc2ccccn2)cc(OC)c1OC (stereo not given): 1
